- Subject of test: full-length SARM1 (FL-SARM1) (Homo sapiens, UniProt Q6SZW1)
- Sequence (Q6SZW1 28-724): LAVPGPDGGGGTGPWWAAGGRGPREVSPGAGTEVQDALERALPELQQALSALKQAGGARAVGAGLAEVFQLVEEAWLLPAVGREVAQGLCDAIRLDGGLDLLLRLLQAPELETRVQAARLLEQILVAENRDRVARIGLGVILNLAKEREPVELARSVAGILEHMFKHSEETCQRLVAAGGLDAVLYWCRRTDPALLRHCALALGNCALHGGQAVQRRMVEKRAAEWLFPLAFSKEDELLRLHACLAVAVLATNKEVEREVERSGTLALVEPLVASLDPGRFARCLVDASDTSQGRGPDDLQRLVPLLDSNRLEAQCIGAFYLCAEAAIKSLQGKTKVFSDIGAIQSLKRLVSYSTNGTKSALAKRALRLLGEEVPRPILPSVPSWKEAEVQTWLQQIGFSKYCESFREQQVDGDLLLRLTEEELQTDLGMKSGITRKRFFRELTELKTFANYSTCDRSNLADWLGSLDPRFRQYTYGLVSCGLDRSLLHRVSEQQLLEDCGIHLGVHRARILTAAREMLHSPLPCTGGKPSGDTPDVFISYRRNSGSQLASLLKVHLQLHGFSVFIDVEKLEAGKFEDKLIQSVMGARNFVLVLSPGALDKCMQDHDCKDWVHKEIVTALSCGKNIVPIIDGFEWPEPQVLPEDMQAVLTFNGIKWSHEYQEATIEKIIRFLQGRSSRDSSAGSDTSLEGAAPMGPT
- Test protocol: FL-SARM1 cellular lysate assay (NAD/NADH-Glo detection of remaining NAD+, NMN-activated)
- Measurement context: Activity (μM) (IC50), 11 point curve
Measurement type: log10 of IC50 (log10 of the value in µM)
Plainly stated, the numbers are log10 of IC50 given in µM.

Consider the worked cases shown below.
O=C(Nc1ccc(C(F)F)c(-c2ccccn2)c1)[C@@H]1CC1(F)F ... 0.40
Cc1ccc(-c2cc(NC(=O)N3[C@@H]4C[C@@H](C)C[C@H]3C4)ccc2C)nn1 ... -1.15
Cc1ccc(NC(=O)[C@@H]2CC2(F)F)cc1-c1cc(C#N)ccn1 ... 1.58
Cc1ccc(NC(=O)[C@@H]2CC2(F)F)cc1-c1ncccc1C ... 0.40
Cc1ccc(NC(=O)C2CCC2C)cc1-c1ccccn1 (centres unmarked) ... 0.23
Cc1ccc(NC(=O)[C@H]2C[C@@H]2C(F)(F)F)cc1-c1ccccn1 (racemic) ... 0.63

# context switch: different compound, same log10 of IC50
Need log10 of IC50, item Cc1ccc(NC(=O)N2C3C[C@H](OC(F)F)C[C@H]2C3)cc1-c1ccccn1 -1.22
